Here the recorded ED50 is given for each entry.
Organism: Mus musculus
Protocol notes: animal or person
Type: functional
Experimental parameters: po
State the answer as a number, implicitly in mg/kg.

>>> observed("COc1ccc2c(c1)CC[C@H](N1CCCC1)[C@H]2N(C)C=O.Cl")
81

Attention now shifts to the item below.
Which ED50 value belongs to COc1cccc2c1CC[C@H](N1CCCC1)[C@H]2N(C)C(=O)CCc1ccc(Cl)c(Cl)c1.Cl ? 81

---

Items are presented alongside their recorded ED50.
Species on record: Mus musculus
Protocol notes: animal or person
Type: functional
Experimental parameters: po
The figure you give is taken to be in mg/kg; do not add the unit.

>>> observed("COc1ccc2c(c1)CC[C@H](N1CC=CC1)[C@H]2N(C)C(C)=O.Cl")
3.4

Next:
// returns reported ED50 for input CN(C(=O)Cc1ccc(Cl)c(Cl)c1)[C@H]1c2cccc(OC(=O)c3ccccc3)c2CC[C@@H]1N1CCCC1.Cl 6.4

---

Species: Mus musculus
Protocol notes: animal or person
Type: functional
Experimental parameters: po
Quantity name: ED50

>>> observed("COc1cccc2c1CC[C@H](N1CCCC1)[C@H]2N(C)C(=O)CSc1ccc(Cl)c(Cl)c1.Cl")
"> 81 mg/kg"
>>> observed("COc1ccc2c(c1)CC[C@H](N1C=CN(C)CC1)[C@H]2N(C)C(C)=O.Cl")
"> 81 mg/kg"

Let's switch to this compound now.
I have this compound here, CN(C(=O)Cc1ccc(Cl)c(Cl)c1)[C@H]1c2ccccc2-c2ccccc2[C@@H]1N1CCCC1.Cl , and I need its recorded ED50. > 81 mg/kg
